- measured_target: recombinant human serotonin receptor 5-HT2A (Homo sapiens, UniProt P28223)
- Construct: expressed in transfected cells; method B: loaded with Ca2+ dye
- Sequence (P28223 whole entry): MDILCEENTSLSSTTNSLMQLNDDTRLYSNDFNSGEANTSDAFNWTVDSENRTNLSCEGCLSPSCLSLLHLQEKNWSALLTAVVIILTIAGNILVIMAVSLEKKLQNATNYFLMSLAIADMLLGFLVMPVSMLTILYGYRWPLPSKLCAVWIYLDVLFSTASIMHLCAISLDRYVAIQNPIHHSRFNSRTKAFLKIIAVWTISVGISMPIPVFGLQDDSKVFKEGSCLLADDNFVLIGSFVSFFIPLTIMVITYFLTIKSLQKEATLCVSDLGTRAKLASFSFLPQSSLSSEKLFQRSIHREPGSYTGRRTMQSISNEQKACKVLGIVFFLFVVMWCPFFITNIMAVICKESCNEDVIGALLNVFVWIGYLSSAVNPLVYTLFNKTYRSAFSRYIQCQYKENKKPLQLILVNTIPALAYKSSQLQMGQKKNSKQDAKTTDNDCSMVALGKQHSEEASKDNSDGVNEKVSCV
- test_method_notes: 5-HT2A antagonist Ca2+ assay in CHO-K1 cells (method A aequorin luminescence / method B FLIPR fluorescence)
- Assay type: cell-based
- test_conditions: antagonist mode vs EC80 of reference agonist, method A or B, read-out: 5HT2A IC50
pIC50: −log10 of the molar value.
Quick rule: pIC50 of at least 7 means label 1, below that means label 0.

Here's what some known entries look like.
Fc1ccc(OC2CCN(CC3CCc4cccc(F)c43)CC2)cc1 (stereo not drawn) :: label 1
Cc1ccc(N2CCN(C[C@H](O)COC3CCCCC3)CC2)cc1 :: label 0
COc1ccccc1O[C@@H]1CCN(CCC2CCOc3ccccc32)[C@@H](C)C1 (stereo partly drawn) :: label 0
OC(COC1CCCCC1)CN1C[C@H]2CC[C@@H](C1)N2c1ccccc1 (stereo partly drawn) :: label 0
COc1ccc2c(c1)C(CN1CC3CCC1CN3c1ccccc1)CC2 (single isomer, unassigned) :: label 1
O[C@H](CO[C@@H]1CCCc2ccccc21)CN1CCN(Cc2ccccc2)CC1 :: label 0

Q. Would you say O=C1c2ccccc2CCN1CCN1C[C@@H]2CC[C@H]1CN2c1ccccc1 shows pIC50 at minimum 7?
A. label 0

Q. Would you say O=C1c2ccccc2CCN1CCN1CCCCC(Oc2ccc(F)cc2)C1 (stereo not drawn) shows pIC50 at minimum 7?
A. label 0

Q. Would you say O[C@H](COC1CCCCC1)CN1[C@@H]2CC[C@H]1CN(c1nccs1)C2 shows pIC50 at minimum 7?
A. label 0

Q. Would you say OC(COC1CCCc2ccccc21)CN1CCN(Cc2ccccc2)CC1 (stereo not drawn) shows pIC50 at minimum 7?
A. label 0

Q. Would you say COc1ccc2c(c1)C(CN1CCC3(CC1)OCc1ccccc13)CC2 (stereo not drawn) shows pIC50 at minimum 7?
A. label 0

Q. Would you say CN(C)c1ccc2c(c1)C(CN1CCC(Oc3ccc(F)cc3)CC1)CC2 (stereo not drawn) shows pIC50 at minimum 7?
A. label 1

Q. Would you say c1ccc(C2COC3(CCN(CC4CCc5ccccc54)CC3)C2)cc1 (single isomer, unassigned) shows pIC50 at minimum 7?
A. label 0

----------
- measured_target: recombinant human serotonin receptor 5-HT2A (Homo sapiens, UniProt P28223)
- Construct: expressed in transfected cells; method B: loaded with Ca2+ dye
- test_method_notes: 5-HT2A antagonist Ca2+ assay in CHO-K1 cells (method A aequorin luminescence / method B FLIPR fluorescence)
- Format: cell-based
- test_conditions: antagonist mode vs EC80 of reference agonist, method A or B, read-out: 5HT2A IC50
property_measured: IC50

Worked examples, 5 compounds total:
O[C@@H](COC1CCCCC1)CN1CC[C@@H]2C[C@H]1CN2c1ccccc1 [Example 327] :: > 3.16 µM
O[C@@H](COC1CCCCC1)CN1C[C@H]2CC[C@@H](C1)N2c1ccccc1 [Example 301] :: > 10 µM
c1ccc(N2C[C@@H]3C[C@H]2CCN3CCC2CCc3cccnc32)cc1 (stereo partly shown) [Example 323] :: > 3.16 µM
O=C1c2ccccc2CCN1CCN1CCOC(Cc2ccccc2)C1 (stereo not shown) [Example 252] :: > 16.7 µM
c1ccc(N2[C@@H]3CC[C@H]2CN(CC2CCc4ccccc42)C3)cc1 (stereo partly shown) [Example 295] :: > 16.7 µM

Q. Quick check: IC50 of c1ccc2c(c1)CC1(CCN(CC3CCc4cccnc43)CC1)O2 (stereo not shown) [Example 394] ?
A. > 10.9 µM

Q. Quick check: IC50 of OC1(CN2CCC[C@H](Oc3ccc(F)cc3)C2)COCc2ccccc21 (stereo partly shown) [Example 259] ?
A. > 13.3 µM

Q. Quick check: IC50 of COc1ccccc1OC1CCN(CC2(C)Cc3cccnc3C2)CC1 (stereo not shown) [Example 151] ?
A. > 10 µM

Q. Quick check: IC50 of N#Cc1ccc(O[C@@H]2CCN(CCN3CCc4ccccc4C3=O)C2)cc1 [Example 31] ?
A. > 16.7 µM

Q. Quick check: IC50 of O[C@@H](COC1CCCCC1)CN1C[C@@H]2C[C@H](C1)N(c1ccccc1)C2 [Example 332] ?
A. > 16.7 µM

----------
- measured_target: recombinant human serotonin receptor 5-HT2A (Homo sapiens, UniProt P28223)
- Construct: expressed in transfected cells; method B: loaded with Ca2+ dye
- test_method_notes: 5-HT2A antagonist Ca2+ assay in CHO-K1 cells (method A aequorin luminescence / method B FLIPR fluorescence)
- Type: cell-based
- test_conditions: antagonist mode vs EC80 of reference agonist, method A or B, read-out: 5HT2A IC50
property_measured: IC50

Worked examples, 2 molecules total:
O=C1c2ccccc2CCN1CCN1CC[C@H](Oc2cccnc2)C1 :: > 16.7 µM
O=C1c2ccccc2CCN1CCN1CC[C@@H](Oc2ccccn2)C1 :: > 16.7 µM

Q. Quick check: IC50 of O=C1c2ccccc2CCN1CCN1CC[C@@H]2C[C@H]1CN2c1ccccc1 ?
A. > 3.16 µM

----------
- measured_target: recombinant human serotonin receptor 5-HT2A (Homo sapiens, UniProt P28223)
- Construct: expressed in transfected cells; method B: loaded with Ca2+ dye
- test_method_notes: 5-HT2A antagonist Ca2+ assay in CHO-K1 cells (method A aequorin luminescence / method B FLIPR fluorescence)
- Format: cell-based
- test_conditions: antagonist mode vs EC80 of reference agonist, method A or B, read-out: 5HT2A IC50
- Excerpt: The methods utilized to assess the inhibitory activity of compounds on recombinant human serotonin receptor 5-HT2A was based upon previously published approaches [Jerman J C, Brough S J, Gager T, Wood M, Coldwell M C, Smart D, Middlemiss D N. Pharmacological characterisation of human 5-HT2 receptor subtypes. European Journal of Pharmacology 2001 Feb. […]
Below, each entry is listed alongside its reported IC50.

Worked examples, 2 molecules total:
OC(COc1ccccc1)CN1CCCC12CCN(c1ccccc1)CC2 (stereo not drawn) [Example 352] :: > 5.3 µM
O[C@@H](CO[C@H]1CCCc2ccccc21)CN1CCN(Cc2ccccc2)CC1 [Example 85] :: > 11.9 µM

Q. Form field: IC50 recorded for Cc1ccc(N2CCN(C[C@@H](O)COC3CCCCC3)CC2)cc1 [Example 78] with recombinant human serotonin receptor 5-HT2A (Homo sapiens, UniProt P28223) (enter value)
A. > 10 µM

----------
- measured_target: recombinant human serotonin receptor 5-HT2A (Homo sapiens)
- Construct: expressed in transfected cells; method B: loaded with Ca2+ dye
- test_method_notes: 5-HT2A antagonist Ca2+ assay in CHO-K1 cells (method A aequorin luminescence / method B FLIPR fluorescence)
- Format: cell-based
- test_conditions: antagonist mode vs EC80 of reference agonist, method A or B, read-out: 5HT2A IC50
- From the text: The methods utilized to assess the inhibitory activity of compounds on recombinant human serotonin receptor 5-HT2A was based upon previously published approaches [Jerman J C, Brough S J, Gager T, Wood M, Coldwell M C, Smart D, Middlemiss D N. Pharmacological characterisation of human 5-HT2 receptor subtypes. European Journal of Pharmacology 2001 Feb. […]
property_measured: IC50

Worked examples, 2 molecules total:
c1ccc2c(c1)CC1(CCN(CC3COc4ccccc43)CC1)O2 (stereo not drawn) :: > 10 µM
COCc1cccc(OC2CCN(CCN3CCCc4ccccc4C3=O)CC2)c1 :: > 1.3 µM

Lab note: next molecule to report on.
Q. Quick check: IC50 of COc1ccc2c(c1)C(CN1CCC(OCc3ccncc3)CC1)CC2 (stereo not drawn) ?
A. > 3.16 µM

----------
Below, each entry is listed alongside its reported IC50.
- measured_target: recombinant human serotonin receptor 5-HT2A (Homo sapiens, UniProt P28223)
- Construct: expressed in transfected cells; method B: loaded with Ca2+ dye
- test_method_notes: 5-HT2A antagonist Ca2+ assay in CHO-K1 cells (method A aequorin luminescence / method B FLIPR fluorescence)
- Type: cell-based
- test_conditions: antagonist mode vs EC80 of reference agonist, method A or B, read-out: 5HT2A IC50

Worked examples, 2 compounds total:
Fc1ccc(O[C@@H]2CCCN(CC3COCc4ccccc43)C2)cc1 (stereo partly drawn) :: 1810 nM
c1ccc(OC2CCN(CCO[C@H]3CCc4ccccc43)CC2)cc1 :: 280 nM

Lab note: next compound to report on.
Q. Quick check: IC50 of c1ccc2c(c1)CCC1(CCN(CC3CCc4ccccc43)C1)O2 (stereo not drawn) ?
A. 30 nM

----------
- measured_target: human sodium channel NaV1.2 (Homo sapiens)
- Sequence (Q99250 whole entry): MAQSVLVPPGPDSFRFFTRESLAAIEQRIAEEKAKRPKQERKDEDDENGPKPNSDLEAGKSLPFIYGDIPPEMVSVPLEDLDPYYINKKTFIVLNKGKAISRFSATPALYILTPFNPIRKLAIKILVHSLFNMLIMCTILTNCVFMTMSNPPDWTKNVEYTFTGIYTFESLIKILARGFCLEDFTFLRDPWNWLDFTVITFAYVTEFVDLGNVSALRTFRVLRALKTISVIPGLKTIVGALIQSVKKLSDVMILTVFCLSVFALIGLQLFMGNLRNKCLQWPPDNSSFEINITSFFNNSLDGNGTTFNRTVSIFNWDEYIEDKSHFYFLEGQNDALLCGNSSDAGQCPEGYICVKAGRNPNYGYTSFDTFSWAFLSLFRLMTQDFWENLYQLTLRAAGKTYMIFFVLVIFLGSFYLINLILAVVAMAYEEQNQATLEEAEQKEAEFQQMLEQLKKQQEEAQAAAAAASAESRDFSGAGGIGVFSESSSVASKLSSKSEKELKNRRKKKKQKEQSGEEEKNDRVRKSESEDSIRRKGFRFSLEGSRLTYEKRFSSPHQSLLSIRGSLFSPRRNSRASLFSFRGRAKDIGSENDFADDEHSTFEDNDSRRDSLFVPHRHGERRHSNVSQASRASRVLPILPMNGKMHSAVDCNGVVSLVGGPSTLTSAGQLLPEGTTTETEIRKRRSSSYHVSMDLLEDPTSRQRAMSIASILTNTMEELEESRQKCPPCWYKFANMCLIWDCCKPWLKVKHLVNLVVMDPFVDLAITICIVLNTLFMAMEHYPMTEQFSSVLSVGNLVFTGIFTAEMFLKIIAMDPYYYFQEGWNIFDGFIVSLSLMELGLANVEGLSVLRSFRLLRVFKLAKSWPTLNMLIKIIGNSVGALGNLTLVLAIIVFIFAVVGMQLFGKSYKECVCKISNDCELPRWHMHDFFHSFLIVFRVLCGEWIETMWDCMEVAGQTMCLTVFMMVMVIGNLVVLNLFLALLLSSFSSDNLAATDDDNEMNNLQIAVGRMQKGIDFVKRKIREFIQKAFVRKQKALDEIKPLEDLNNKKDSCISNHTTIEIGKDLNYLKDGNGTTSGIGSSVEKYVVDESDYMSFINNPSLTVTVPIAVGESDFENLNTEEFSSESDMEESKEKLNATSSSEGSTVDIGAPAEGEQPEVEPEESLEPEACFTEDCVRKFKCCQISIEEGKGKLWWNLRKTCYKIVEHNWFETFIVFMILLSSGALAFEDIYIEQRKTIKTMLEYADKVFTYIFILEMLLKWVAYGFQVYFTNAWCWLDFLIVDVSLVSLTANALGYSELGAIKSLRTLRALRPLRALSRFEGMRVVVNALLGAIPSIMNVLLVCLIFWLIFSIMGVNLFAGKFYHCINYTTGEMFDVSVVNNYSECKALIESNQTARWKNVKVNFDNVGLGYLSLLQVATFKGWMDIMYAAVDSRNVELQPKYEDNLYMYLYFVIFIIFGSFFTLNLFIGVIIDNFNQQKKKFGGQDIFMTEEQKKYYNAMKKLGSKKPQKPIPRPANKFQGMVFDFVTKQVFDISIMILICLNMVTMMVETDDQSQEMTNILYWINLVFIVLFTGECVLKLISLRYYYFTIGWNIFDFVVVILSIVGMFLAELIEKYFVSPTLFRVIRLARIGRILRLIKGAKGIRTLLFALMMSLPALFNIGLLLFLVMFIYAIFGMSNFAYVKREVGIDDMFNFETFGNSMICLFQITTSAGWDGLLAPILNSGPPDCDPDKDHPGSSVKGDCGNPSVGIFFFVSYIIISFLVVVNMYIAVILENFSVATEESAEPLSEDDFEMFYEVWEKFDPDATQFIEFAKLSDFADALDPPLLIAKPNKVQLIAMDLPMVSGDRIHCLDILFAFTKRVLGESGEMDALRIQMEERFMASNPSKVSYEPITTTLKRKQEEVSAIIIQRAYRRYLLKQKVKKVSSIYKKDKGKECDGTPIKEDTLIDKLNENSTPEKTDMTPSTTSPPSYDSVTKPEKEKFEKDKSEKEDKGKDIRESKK
- test_method_notes: NaV1.2 inhibition, automated patch-clamp (Q-Patch HTX), slow inactivated state (state C)
- Assay type: cell-based
- test_conditions: hNaV1.2 CHO cells, slow inactivated state; read-out: NaV1.2 IC50
- Description: In vitro method for NaV1.2 inhibition assays: The methods utilized to assess the inhibitory activity of compounds on NaV1.2 were based on the methods described by Liu et al. [Liu Y, Beck E J, & Flores C M (2011): Validation of a patch clamp screening protocol that simultaneously measures compound activity in multiple states of the voltage-gated sodium channel Nav1.2. Assay Drug Development Technology 9, 628-634]. […]
pIC50: −log10 of the molar value.
Quick rule: pIC50 of at least 6 means Y, below that means N.

Here's what some known entries look like.
COc1ccc2c(c1)C(CN1CCN(c3ccccc3)CC1)CC2 (stereo not shown) :: N
OC(COC1CCCCC1)CN1C[C@H]2CC[C@@H](C1)N2c1ccccc1 (stereo partly shown) :: N
c1ccc2c(c1)CCC1(CCN(CC3COc4ccccc43)CC1)O2 (stereo not shown) :: N

Now take the following molecule into account.
Q. Would you say N#Cc1cccc2c1CCC2CN1CCC(Oc2ccc(F)cc2)CC1 (stereo not shown) shows pIC50 at minimum 6?
A. Y
